- Tested system: JAK3 (Homo sapiens (Human))
- Sequence (P52333 822-1111): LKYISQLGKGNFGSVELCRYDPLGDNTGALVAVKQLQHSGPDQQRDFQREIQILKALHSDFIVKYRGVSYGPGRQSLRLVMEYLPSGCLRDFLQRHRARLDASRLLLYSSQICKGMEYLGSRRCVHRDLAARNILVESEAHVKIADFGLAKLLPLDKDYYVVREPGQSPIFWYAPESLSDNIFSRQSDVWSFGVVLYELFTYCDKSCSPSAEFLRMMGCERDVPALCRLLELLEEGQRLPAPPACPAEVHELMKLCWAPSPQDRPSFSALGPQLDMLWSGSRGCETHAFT
- Experiment summary: JAK Caliper enzyme assay at 1 mM ATP (JAK3)
- Experimental parameters: recombinant human kinase domain, Caliper mobility shift
pIC50: −log10 of the molar value.
Metric: pIC50

Answered cases to consult:
Cn1cc(-c2cn3nccc3c(-c3cnn(C4(CC#N)CN(S(C)(=O)=O)C4)c3)n2)cn1
< 5.03
Cn1cc(-c2cn3nccc3c(-c3cnn([C@]4(CC#N)C[C@@H](c5ccn[nH]5)C4)c3)n2)cn1
5.00
N#CC[C@]1(n2cc(-c3nc(-c4cc(CO)on4)cn4nccc34)cn2)C[C@@H](C#N)C1
< 5.01

// lookup pIC50 for Cc1cc(-c2cn3nccc3c(-c3cnn([C@]4(CC#N)C[C@@H](C#N)C4)c3)n2)n[nH]1
< 5.00

// lookup pIC50 for Cn1cc(-c2cn3nccc3c(-c3cnn([C@]4(CC#N)C[C@@H](O)C4)c3)n2)cn1
< 5.00

// lookup pIC50 for Cn1cc(-c2cn3nccc3c(-c3cnn([C@]4(CC#N)C[C@@H](C#N)C4)c3)n2)c(=O)[nH]1
< 5.00

// lookup pIC50 for N#CC[C@]1(n2cc(-c3nc(-c4cc(C(N)=O)no4)cn4nccc34)cn2)C[C@H](C#N)C1
< 5.00

// lookup pIC50 for Cn1cc(-c2cn3nccc3c(-c3cnn(C4(CC#N)CN(CC#N)C4)c3)n2)cn1
5.18

// lookup pIC50 for Cn1cc(-c2cn3nccc3c(-c3cnn([C@]4(CC#N)C[C@@H](C#N)C4)c3)n2)nn1
< 5.00

// lookup pIC50 for N#CCC1(n2cc(-c3nc(-c4cc(CO)[nH]n4)cn4nccc34)cn2)CN(CC2CC2)C1
< 5.00

// lookup pIC50 for CO[C@H]1C[C@@](CC#N)(n2cc(-c3nc(-c4cc(CO)[nH]n4)cn4nccc34)cn2)C1
< 5.00

// lookup pIC50 for Cc1cc2c(-c3cnn([C@]4(CC#N)C[C@@H](C#N)C4)c3)nc(-c3cnn(C)c3)cn2n1
< 5.00

// lookup pIC50 for CO[C@H]1C[C@](CC#N)(n2cc(-c3nc(-c4cc(NC(C)=O)[nH]n4)cn4nccc34)cn2)C1
< 5.00

// lookup pIC50 for Cn1cc(-c2cn3nccc3c(-c3cnn(C4(CC#N)CCC4)c3)n2)cn1
< 5.00

// lookup pIC50 for CO[C@H]1C[C@@](CC#N)(n2cc(-c3nc(-c4cc(C(N)=O)n[nH]4)cn4nccc34)cn2)C1
< 5.00

// lookup pIC50 for Cn1cc(-c2cn3nccc3c(-c3cnn([C@]4(CC#N)C[C@@H](C#N)C4)c3)n2)c(CO)n1
< 5.00

====

- Tested system: TYK2 (Homo sapiens (Human), UniProt P29597)
- Sequence (P29597 897-1176): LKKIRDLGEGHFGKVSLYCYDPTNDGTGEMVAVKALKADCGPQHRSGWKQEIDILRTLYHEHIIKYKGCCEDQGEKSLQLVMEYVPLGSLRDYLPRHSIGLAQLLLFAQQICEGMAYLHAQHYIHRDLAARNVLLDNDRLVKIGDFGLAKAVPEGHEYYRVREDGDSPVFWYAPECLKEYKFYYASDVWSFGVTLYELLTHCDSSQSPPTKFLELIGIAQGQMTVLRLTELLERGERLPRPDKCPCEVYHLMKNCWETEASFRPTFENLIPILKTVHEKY
- Experiment summary: JAK Caliper enzyme assay at 1 mM ATP (TYK2)
- Experimental parameters: recombinant human kinase domain, Caliper mobility shift
pIC50: −log10 of the molar value.
Metric: pIC50

Answered cases to consult:
N#CCC1(n2cc(-c3nc(-c4cc(CO)[nH]n4)cn4nccc34)cn2)CN(CC2CC2)C1
7.21
Cn1cc(-c2cn3nccc3c(-c3cnn([C@]4(CC#N)C[C@H](CC#N)C4)c3)n2)cn1
8.10
Cc1nn([C@]2(CC#N)C[C@@H](C#N)C2)cc1-c1nc(-c2cnn(C)c2)cn2nccc12
7.47
Cn1cc(-c2cn3nccc3c(-c3cnn([C@]4(CC#N)C[C@](C)(C#N)C4)c3)n2)cn1
7.96
Cn1cc(-c2cn3nccc3c(-c3cnn(C4(CC#N)CCC4)c3)n2)cn1
7.26

P = Cn1cc(-c2cn3nccc3c(-c3cnn(C4(CC#N)CN(CC#N)C4)c3)n2)cn1
Q = CO[C@H]1C[C@](CC#N)(n2cc(-c3nc(-c4cc(NC(C)=O)[nH]n4)cn4nccc34)cn2)C1
R = CCC(=O)N1CC(CC#N)(n2cc(-c3nc(-c4cnn(C)c4)cn4nccc34)cn2)C1
Rank ascending by pIC50. The response must list the labels following the requested ordering.
R, Q, P

P = CO[C@H]1C[C@](CC#N)(n2cc(-c3nc(-c4cc(CO)[nH]n4)cn4nccc34)cn2)C1
Q = Cn1cc(-c2cn3nccc3c(-c3cnn([C@]4(CC#N)C[C@@](C)(C#N)C4)c3)n2)cn1
R = CCN1CC(CC#N)(n2cc(-c3nc(-c4cc(CO)[nH]n4)cn4nccc34)cn2)C1
Thanks in advance: please rank these 3 entries by pIC50, highest to lowest. The response must list the labels following the requested ordering.
P, R, Q
(P: 7.57, R: 7.19, Q: 6.87)

====

- Test system: IL-12 induced STAT4 phosphorylation (IL-12 signals through TYK2 and JAK2)
- Experiment summary: Human Whole Blood IL-12 Induced STAT4 Phosphorylation Assay
- Format: cell-based
- Experimental parameters: Lymphocyte, IL-12 5 ng/mL, pSTAT4 in lymphocytes by flow cytometry, read-out: HWB IL-12 IC50
pIC50: −log10 of the molar value.
Metric: pIC50

Answered cases to consult:
Cn1cc(-c2cn3nccc3c(-c3cnn([C@]4(CC#N)C[C@@H](C#N)C4)c3)n2)cn1
7.30
Cn1cc(-c2cn3nccc3c(-c3cnn(C4(CC#N)CN(CC#N)C4)c3)n2)cn1
7.39
Cn1cc(-c2cn3nccc3c(-c3cnn([C@]4(CC#N)C[C@H](C#N)C4)c3)n2)cn1
7.55
CO[C@H]1C[C@](CC#N)(n2cc(-c3nc(-c4cc(N)[nH]n4)cn4nccc34)cn2)C1
7.34
N#CC[C@]1(n2cc(-c3nc(-c4cc(CO)on4)cn4nccc34)cn2)C[C@@H](C#N)C1
6.79
CO[C@H]1C[C@@](CC#N)(n2cc(-c3nc(-c4cc(CO)[nH]n4)cn4nccc34)cn2)C1
7.07

1 = Cc1cnn2cc(-c3cnn(C)c3)nc(-c3cnn([C@]4(CC#N)C[C@@H](C#N)C4)c3)c12
2 = CO[C@H]1C[C@@](CC#N)(n2cc(-c3nc(-c4cc(C(N)=O)n[nH]4)cn4nccc34)cn2)C1
3 = Cn1cc(-c2cn3nccc3c(-c3cnn([C@]4(CC#N)C[C@@H](C#N)C4)c3)n2)c(N)n1
Thanks in advance: please rank these 3 entries by pIC50, highest to lowest. The response must list the labels following the requested ordering.
3, 1, 2
(3: 7.47, 1: 7.23, 2: 6.89)

====

- Tested system: TYK2 (Homo sapiens (Human))
- Experiment summary: JAK Caliper enzyme assay at 1 mM ATP (TYK2)
- Experimental parameters: recombinant human kinase domain, Caliper mobility shift
pIC50: −log10 of the molar value.
Metric: pIC50

A = CO[C@H]1C[C@@](CC#N)(n2cc(-c3nc(-c4cc(C(N)=O)n[nH]4)cn4nccc34)cn2)C1 [Example 32]
B = Cn1cc(-c2cn3nccc3c(-c3cnn([C@]4(CC#N)C[C@@H](c5ccn[nH]5)C4)c3)n2)cn1 [Example 18]
I'm curious whether A or B has the smaller pIC50 number. Which is it? Give the label under which the chosen entry appears.
B

I = CO[C@H]1C[C@](CC#N)(n2cc(-c3nc(-c4cc(N)[nH]n4)cn4nccc34)cn2)C1 [Example 30]
II = Cc1cc2c(-c3cnn([C@]4(CC#N)C[C@@H](C#N)C4)c3)nc(-c3cnn(C)c3)cn2n1 [Example 36]
I'm curious whether I or II has the smaller pIC50 number. Which is it? Give the label under which the chosen entry appears.
II

P = Cn1cc(-c2cn3nccc3c(-c3cnn(C4(CC#N)CN(S(=O)(=O)C5CC5)C4)c3)n2)cn1 [Example 9]
Q = N#CC[C@]1(n2cc(-c3nc(-c4cc(C(N)=O)no4)cn4nccc34)cn2)C[C@H](C#N)C1 [Example 29]
Two entries are listed, P and Q . Which one carries the higher pIC50? Give the label under which the chosen entry appears.
P
(P: 8.10, Q: 6.45)

====

- Tested system: JAK1 (Homo sapiens (Human))
- Sequence (P23458 875-1153): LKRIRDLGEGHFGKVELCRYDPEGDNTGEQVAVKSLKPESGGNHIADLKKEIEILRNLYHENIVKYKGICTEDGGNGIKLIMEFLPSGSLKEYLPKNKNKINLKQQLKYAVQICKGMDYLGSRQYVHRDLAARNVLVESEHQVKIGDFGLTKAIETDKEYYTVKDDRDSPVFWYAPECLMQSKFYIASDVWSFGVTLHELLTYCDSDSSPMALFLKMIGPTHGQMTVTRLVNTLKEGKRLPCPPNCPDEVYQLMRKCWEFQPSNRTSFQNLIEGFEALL
- Experiment summary: JAK Caliper enzyme assay at 1 mM ATP (JAK1)
- Experimental parameters: recombinant human kinase domain, Caliper mobility shift
pIC50: −log10 of the molar value.
Metric: pIC50

Answered cases to consult:
CO[C@H]1C[C@](CC#N)(n2cc(-c3nc(-c4cc(N)n(C)n4)cn4nccc34)cn2)C1
5.45
CO[C@H]1C[C@](CC#N)(n2cc(-c3nc(-c4cc(CO)[nH]n4)cn4nccc34)cn2)C1
5.87

P = Cn1cc(-c2cn3nccc3c(-c3cnn([C@]4(CC#N)C[C@@H](O)C4)c3)n2)cn1
Q = CO[C@H]1C[C@](CC#N)(n2cc(-c3nc(-c4cc(N)[nH]n4)cn4nccc34)cn2)C1
I'm curious whether P or Q has the smaller pIC50 number. Which is it? Give the label under which the chosen entry appears.
P
